biological target: T1, biotinylated human Shh (human, UniProt Q15465 24-197, limits assumed, biotinylated); assay: ELISA, hybridoma supernatant on neutravidin-captured biotin-Shh
T1 construct: also called biotin-Shh; immobilized biotinylated Shh
OD450 reference
Use OD450 as the unit, but write only the number.

>>> value_measured("1G1 (antibody, V domains shown, fully human XenoMouse hybridoma antibody; also called MAb 1G1) VH: EVQLVESGGGLVKPGGSLRLSCAASGFTFSSYSMNWVRQAPGKGLEWVSSFSSSSSYIYYADSVKGRFTISRDNAKNSLYLQMNSLRAEDTAVYYCARDRGDYVDYYYGMDVWGQGTTVTVSS VL: SYELTQPPSVSVSPGQTASITCSGDKLDYKYICWYQQKPGQSPVLVIYQDIKRPSGIPERFSGSNSGNTATLTISGTQAMDEADYYCQAWDSNTPLVFGGGTKLTVL")
4.3
>>> value_measured("1H12 (antibody, V domains shown, fully human XenoMouse hybridoma antibody; tested as hybridoma supernatant and as purified antibody; also called MAb 1H12) VH: QVQLVQSGAEVKKPGASVKVSCKASGYTFTGYYMHWVRQAPGQGLEWVGWFNPNSGGTNCAQKFQGRVTMTRDTSISTAYMELSRLRSDDTAVYYCAREAVESYYYGLDVWGQGTTVTVSS VL: QSVVTQPPSASGTPGQRITISCSGSSSNIGSNYVYWYHQLPGSAPNLLIYRNNQRPSGVPDRFSGSKSGTSASLAISGLRSEDEADYFCAVWDDSLRGVVFGGGTKLTVL")
3.73
>>> value_measured("1H10 (antibody, V domains shown, fully human XenoMouse hybridoma antibody; tested as hybridoma supernatant and as purified antibody; also called MAb 1H10) VH: QVQLVESGGGVVQPGRSLRLSCAASGFTFSSYGMHWVRQAPGKGLEWVAVIWNDGSNEYYADSVKGRFTISRDNSKNTLYLQMNSLRAEDTAVYYCARDLYYYGSGSPFDDWGQGTLVTVSS VL: EIVMTQSPGTLSVSPGERATLSCRASQSVGSNLAWYQQKPGQAPRLLIFGVSIRATGVPARFSGSGSGTEFTLTISSLQSEDFAVYYCQQYNDWPRPGFGGGTKVEIK")
3.46
>>> value_measured("1A5 (antibody, V domains shown, fully human XenoMouse hybridoma antibody; tested as hybridoma supernatant and as purified antibody; also called MAb 1A5) VH: EVQVVESGGDLIQPGGSLRLSCVASGFTVSSNYMNWVRQAPGKGLEWVSVIYSGGNTYYADSVKGRFTISRDNSKNTLYLQMNSLRAEDTAVYYCARDSSVVVGLGYFDLWGRGTLVTVSS VL: SYELTQPPSVSVSPGQTASITCSGDKLGANYASWYQQKPGQSPVLVIFQDTKRPSGIPERFSGSNSGNTATLTISGTQAMDEADYYCQAWDFSTVIFGGGTKLTVL")
6
>>> value_measured("1A12 (antibody, V domains shown, fully human XenoMouse hybridoma antibody; tested as hybridoma supernatant and as purified antibody; also called MAb 1A12) VH: QVYLVESGGGVVQPGRSLRLSCAASGFTFSSYGMHWVRQAPGKGLEWVAVIWYDGSNEYYADSVKGRFTISRDNSKNTLYLQMNSLRAEDTAVYYCARDLYYYGSGSPFDYWGQGTLVTVSS VL: EIVMTQSPATLSVSPGERATLSCRASQSVSSNLAWYQQKPGQAPRLLIFGVSIRATGIPARFSGSGSGTEFTLTISSLQSEDFAVYYCQQYNDWPRPGFGGGTKVEIK")
4.09
>>> value_measured("1G12 (antibody, V domains shown, fully human XenoMouse hybridoma antibody; tested as hybridoma supernatant and as purified antibody; also called MAb 1G12) VH: QVQLVESGGGVVQPGRSLRLSCAASGFTFSTYGMHWVRQAPGKGLEWVAVIWYDGSNKYYADSVNGRFTISRDNSKNTLYLQMNSLRGEDTAVYYCARDLYYYGSGSPFDYWGQGTLVTVSS VL: EIVMTQSPATLSVSPGERVTLSCRASQSVSSNLAWYQQKPGQAPRLLIYGVSIRATGIPARFSGSGSGTEFTLTISSLQSEDFAVYYCQQYDNWPRPGFGGGTKVEIK")
2.49

State its OD450: 4B6 (antibody, V domains shown, fully human XenoMouse hybridoma antibody; tested as hybridoma supernatant and as purified antibody; also called MAb 4B6) VH: QVQLVESGGGVVQPGRSLRLSCAASGFTFSTYGMHWVRQAPGKGLEWVAVIWYDGSNEYYADSVKGRFTISRDNSKNTLYLQMNSLRAEDTAVYYCARDLYYYGSGSPFDYWGQGTLVTVSS VL: EIVMTQSPATLSVSPGERATLSCRASQSVSSNLAWYQQKPGQAPRLLIFGISIRATGIPARFSGSGSGTEFTLTISSLQSEDFAVYYCQQYNDWPRPGFGGGTRVEIK
5.14

State its OD450: 3H8 (antibody, V domains shown, fully human XenoMouse hybridoma antibody; also called MAb 3H8) VH: QVQLVESGGGVVQPGRSLRLSCAASGFTFSTYGMHWVRQAPGKGLEWVAVIWYDGSNKYYADSVKGRFTISRDNSKNTLNLQMNSLRAEDTAVYYCARDLYYYGSGSPFDYWGQGTLVTVSS VL: EIVMTQSPATLSVSPGERATLSCRASQSVSSNLAWYQQKPGQAPRLLIFGVSIRATGIPARFSGSGSGTEFTLTISSLQSEDFAVYYCQQYNNWPRPGFGGGTKVEIK
3.81
